experiment: superoxide lowering in aged yeast cells, pilot screen, validation compound set (AID 2706);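 also: yeast exposed to compound for one week at 30 degrees C before staining; 100% = mean of all compound wells on the same plate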; conditions: S. cerevisiae aging, superoxide DHE fluorescence; at 10 µM; stronger effect = lower value
metric.name: superoxide response (% of plate) (%)
Report the figure in % without appending any unit label.

Answered examples (10):
| compound | metric.name | reported |
| --- | --- | --- |
| CCNC(=S)N(C)CCc1cc2c(c(OC)c1C=C1C(=O)N(C)C(=O)N(C)C1=O)OCO2 | superoxide response (% of plate) | 89.1 |
| O=C(CCCN1CCC2(CC1)C(=O)NCN2c1ccccc1)c1ccc(F)cc1 | superoxide response (% of plate) | 85.3 |
| CC(=O)c1ccc(-c2ccccc2)cc1 | superoxide response (% of plate) | 96.8 |
| O=c1[nH]c(=S)n(-c2ccccc2)c(O)c1/C=N/N1CCCCC1c1cccnc1 (stereo unspecified) | superoxide response (% of plate) | 100 |
| O=c1cccc2n1C[C@H]1C[C@@H]2CN2CCCC[C@@H]12 | superoxide response (% of plate) | 100 |
| CCCC(=O)OCC[N+](C)(C)C | superoxide response (% of plate) | 92.5 |
| CC[C@@H](CO)NC(=O)[C@@H]1C=C2c3cccc4c3c(cn4C)C[C@H]2N(C)C1 | superoxide response (% of plate) | 108 |
| CC12CN3CC(C)(CN(C1)C3c1cccs1)C2O (stereo unspecified) | superoxide response (% of plate) | 106 |
| c1ccc(Cn2ccnc2)cc1 | superoxide response (% of plate) | 92.9 |
| COc1ccc(CN2CC3CC(C2)c2cccc(=O)n2C3)cc1OC (stereo unspecified) | superoxide response (% of plate) | 93 |

Here is the next item to consider.
Exercise: For the compound Clc1ccc(COC(Cn2ccnc2)c2ccc(Cl)cc2Cl)cc1 (stereo unspecified) , what superoxide response (% of plate) is on record?
Solution: 121

---

biological target: Beta-adrenergic receptor kinase 1 (Homo sapiens); test: GRK2 binders displacing RNA aptamer, biochemical, validation, human GRK2, bead flow cytometry (AID 488806); conditions: bead-bound GRK2, FAM-aptamer displacement, at 10 µM, stronger effect = higher value
Below, each entry is listed with its recorded aptamer binding inhibition.
Report the figure in % without appending any unit label.

Answered examples (3):
| compound | target.entity | metric.name | reported |
| --- | --- | --- | --- |
| CC12CCC3C(CC=C4CC(O)CCC43C)C1C/C(=C\c1cccc(F)c1)C2=O (configuration not stated) | Beta-adrenergic receptor kinase 1 (Homo sapiens) | aptamer binding inhibition | 3 |
| CC(=O)OC1C2CCC1C(N1CCCC1)CC2 (configuration not stated) | Beta-adrenergic receptor kinase 1 (Homo sapiens) | aptamer binding inhibition | 0 |
| Cc1ccc(-n2c(C)cc(/C=C3/C(=O)NC(=O)N(C)C3=O)c2C)cc1 | Beta-adrenergic receptor kinase 1 (Homo sapiens) | aptamer binding inhibition | -5 |

Exercise: For the compound "CCNC(=S)N(C)CCc1cc2c(c(OC)c1C=C1C(=O)N(C)C(=O)N(C)C1=O)OCO2" , what aptamer binding inhibition is on record?
Solution: 4

Exercise: For the compound O=C1CSC2N1CCNC21CCCCC1 (configuration not stated) , what aptamer binding inhibition is on record?
Solution: 0

Exercise: For the compound Clc1ccc(COC(Cn2ccnc2)c2ccc(Cl)cc2Cl)c(Cl)c1 (configuration not stated) , what aptamer binding inhibition is on record?
Solution: 4

Exercise: For the compound CC12CN3CC(C)(CN(C1)C3c1cccs1)C2O (configuration not stated) , what aptamer binding inhibition is on record?
Solution: 2

Exercise: For the compound Cc1ccc2c(c1)C1CN(C)CCC1N2C(=O)Nc1cccc(Cl)c1 (configuration not stated) , what aptamer binding inhibition is on record?
Solution: -3

Exercise: For the compound CC(CCc1ccccc1)NC(C)C(O)c1ccc(O)cc1 (configuration not stated) , what aptamer binding inhibition is on record?
Solution: 1

Exercise: For the compound COP(=O)(OC)C(O)C(Cl)(Cl)Cl (configuration not stated) , what aptamer binding inhibition is on record?
Solution: 3

Exercise: For the compound Clc1ccc(COC(Cn2ccnc2)c2ccc(Cl)cc2Cl)cc1 (configuration not stated) , what aptamer binding inhibition is on record?
Solution: 3

Exercise: For the compound COc1ccc(NC2=NCC(C)S2)cc1 (configuration not stated) , what aptamer binding inhibition is on record?
Solution: 2

---

test: inhibitors of CD8+ T cell-vesicle binding, pilot screen, LFA-1/ICAM-1 modulator project, MLPCN validation set, flow cytometry (AID 2523); details: 2C mouse CD8+ T cells, at 7 µM, stronger effect = lower value; measured here: CD8+/vesicle+ event percentage
Output rule met for records whose double positive events is lower than 60%, rule not met for records at or above 60%.

| compound | classification |
| --- | --- |
| CN(C)[C@@H]1C(=O)C(C(N)=O)=C(O)[C@@]2(O)C(=O)C3=C(O)c4c(O)cccc4[C@@](C)(O)[C@H]3[C@H](O)[C@@H]12 | rule met |
| Cc1nc2ccccc2c(=O)n1-c1ccc(C(=O)O)cc1 | rule not met |
| c1ccc(Cn2ccnc2)cc1 | rule not met |

Exercise: Please check: double positive events for "C[C@H]1OC[C@@H](C[N+](C)(C)C)O1" , strictly under 60% or not?
Solution: rule not met

Exercise: Please check: double positive events for CC(C)NC(C)C(=O)c1ccc2ccccc2c1 (stereo unspecified) , strictly under 60% or not?
Solution: rule not met

---

Below, each entry is listed with its recorded inhibition.
molecular target: AP-2 complex subunit beta (Homo sapiens) (UniProt P63010); assay: inhibitors of arrestin peptide binding to AP2, pilot screen, biochemical, validation set, GST-AP2 beads, flow cytometry (AID 504541); conditions: FITC arrestin peptide, at 10 µM, stronger effect = higher value;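 also: AP2 carries R879A mutation and is captured from E. coli lysate; bead-bound FITC arrestin peptide fluorescence measuring arrestin peptide binding to AP2; 0% = DMSO wells and 100% = excess unlabeled arrestin peptide control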
Sequence (P63010 whole entry, looked up, one chain of several): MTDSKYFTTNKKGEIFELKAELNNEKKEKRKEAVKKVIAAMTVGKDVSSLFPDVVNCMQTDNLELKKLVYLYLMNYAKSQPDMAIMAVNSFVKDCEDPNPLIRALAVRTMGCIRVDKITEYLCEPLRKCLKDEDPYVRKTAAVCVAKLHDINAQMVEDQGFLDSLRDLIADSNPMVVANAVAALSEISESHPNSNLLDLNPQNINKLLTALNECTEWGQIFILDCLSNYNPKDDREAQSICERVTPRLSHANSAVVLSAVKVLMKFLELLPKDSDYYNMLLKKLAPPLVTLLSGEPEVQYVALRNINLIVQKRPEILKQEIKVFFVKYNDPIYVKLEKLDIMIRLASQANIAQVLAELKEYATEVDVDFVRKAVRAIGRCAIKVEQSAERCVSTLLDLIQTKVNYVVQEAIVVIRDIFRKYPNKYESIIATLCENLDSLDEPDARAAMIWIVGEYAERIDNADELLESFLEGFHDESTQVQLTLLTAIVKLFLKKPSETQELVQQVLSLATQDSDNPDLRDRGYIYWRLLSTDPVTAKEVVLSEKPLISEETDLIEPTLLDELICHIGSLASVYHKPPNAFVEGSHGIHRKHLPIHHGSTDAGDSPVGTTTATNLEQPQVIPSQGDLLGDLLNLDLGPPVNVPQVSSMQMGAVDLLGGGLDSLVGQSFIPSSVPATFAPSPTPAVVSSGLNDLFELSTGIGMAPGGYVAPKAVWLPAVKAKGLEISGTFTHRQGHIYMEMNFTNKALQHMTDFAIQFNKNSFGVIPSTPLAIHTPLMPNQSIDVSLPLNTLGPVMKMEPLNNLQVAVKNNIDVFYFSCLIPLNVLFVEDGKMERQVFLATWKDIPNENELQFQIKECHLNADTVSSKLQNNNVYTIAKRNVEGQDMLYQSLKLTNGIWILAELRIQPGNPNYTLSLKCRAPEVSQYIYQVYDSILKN
Report the figure in % without appending any unit label.

Answered examples (3):
| compound | reported |
| --- | --- |
| COc1ccccc1CN1CCCCC1c1cccnc1 (stereo unspecified) | 1.86 |
| C=CC1CN2CCC1CC2[C@@H](OC(=O)c1ccc(OC)cc1)c1ccnc2ccccc12 (stereo partly specified) | -4.1 |
| COc1ccc2c(c1)CC1(CN2C)C(=O)NC(=O)N(CCc2ccccc2)C1=O (stereo unspecified) | -4.29 |

Exercise: For the compound "COc1ccc2c3c([nH]c2c1)C(C)=NCC3" , what inhibition is on record?
Solution: 10.6

Exercise: For the compound "O=C1CC[C@@]2(O)[C@H]3Cc4ccc(O)c5c4[C@@]2(CCN3CC2CC2)[C@H]1O5" , what inhibition is on record?
Solution: -0.81

Exercise: For the compound "Cn1c(O)c(C=NCCc2c[nH]c3ccccc23)c(=O)n(C)c1=O" , what inhibition is on record?
Solution: -3.21

Exercise: For the compound "COc1cc(/C=C2\C(=O)NC(=O)N(c3ccccc3)C2=O)c([N+](=O)[O-])cc1OC" , what inhibition is on record?
Solution: 5.39

Exercise: For the compound "C[N+]1(C)CCN(c2ccccc2)CC1" , what inhibition is on record?
Solution: -8.27

Exercise: For the compound Clc1ccc(COC(Cn2ccnc2)c2ccc(Cl)cc2Cl)c(Cl)c1 (stereo unspecified) , what inhibition is on record?
Solution: -8.06

Exercise: For the compound O=C1NCCN2CCCC12 (stereo unspecified) , what inhibition is on record?
Solution: 4.79

Exercise: For the compound CN1C2CCC1CC(OC(=O)CCN1CCCC1)C2 (stereo unspecified) , what inhibition is on record?
Solution: 33.9

---

Below, each entry is listed with its recorded response.
experiment: yeast V-ATPase proton transport modulators, S. cerevisiae, pHLuorin, HTS validation (AID 504600);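 also: plate controls were DMSO for no effect and reference compound for full effect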; conditions: S. cerevisiae pHLuorin cytosolic pH, at 10 µM, stronger effect = higher value
Report the figure in % without appending any unit label.

| molecule | response [%] |
| --- | --- |
| CC12CN3CC(C)(CN(C1)C31CCOCC1)C2=O | -6.81 |
| CCOC(=O)c1cc2c(cn1)[nH]c1ccccc12 | -1.17 |
| C[C@H]1OC[C@@H](C[N+](C)(C)C)O1 | 4.51 |
| CC(CCc1ccccc1)NC(C)C(O)c1ccc(O)cc1 (configuration not stated) | 5.84 |
| O=C1NCCN2CCCC12 (configuration not stated) | 113 |
| O=S(=O)(c1ccc(F)cc1)N1CCCCC1c1cccnc1 (configuration not stated) | 2.55 |
| CN1C2CCC1CC(OC(=O)CCN1CCCC1)C2 (configuration not stated) | -1.35 |
| O=c1cccc2n1C[C@H]1C[C@@H]2CN2CCCC[C@@H]12 | -3.47 |

Exercise: For the molecule "CCNC(=O)[C@H]1O[C@@H](n2cnc3c(N)ncnc32)[C@H](O)[C@@H]1O" , what response is on record?
Solution: 0.72

Exercise: For the molecule CC(C)NC(C)C(=O)c1ccc2ccccc2c1 (configuration not stated) , what response is on record?
Solution: 3.67

Exercise: For the molecule CN1CCN(C(=O)OC2c3nccnc3C(=O)N2c2ccc(Cl)cn2)CC1 (configuration not stated) , what response is on record?
Solution: -1.22

Exercise: For the molecule "CCOc1ccc(N2C(=O)NC(=O)/C(=C\c3cc(OC)c(OC)cc3[N+](=O)[O-])C2=O)cc1" , what response is on record?
Solution: -4.04
